For each of the molecules below, state its pKd.
pKd here: minus log base 10 of the concentration, concentration in moles per litre.

Entry NC(=O)[C@H](CCCCNC(=O)c1ccc2c(c1)C1(OC2=O)c2ccc(O)cc2Oc2cc(O)ccc21)NC(=O)CNC(=O)[C@H]1CCCC[C@@H]1NC(=O)C[C@H](Cc1c[nH]c2ccccc12)NC(=O)[C@H]1CCCC[C@@H]1NC(=O)[C@H]1CCCC[C@@H]1NC(=O)C[C@H](Cc1c[nH]c2ccccc12)NC(=O)[C@H]1CCCC[C@@H]1N , S100A2 (Homo sapiens) data, pKd value: 4.19

Result for CC[C@H](C)[C@@H](CC(=O)N[C@H]1CCCC[C@@H]1C(=O)N[C@H]1CCCC[C@@H]1C(=O)N[C@H](CC(=O)N[C@H]1CCCC[C@@H]1C(=O)NCC(=O)N[C@@H](CCCCNC(=O)c1ccc2c(c1)C1(OC2=O)c2ccc(O)cc2Oc2cc(O)ccc21)C(N)=O)Cc1ccccc1)NC(=O)[C@H]1CCCC[C@@H]1N , tested on S100A2 (Homo sapiens), pKd: 4.42

====

pKd: −log10 of the molar value.
Assign pKd to each entry below.

// compound CC(C)C[C@@H](CC(=O)N[C@H]1CCCC[C@@H]1C(=O)NCC(=O)N[C@@H](CCCCNC(=O)c1ccc2c(c1)C1(OC2=O)c2ccc(O)cc2Oc2cc(O)ccc21)C(N)=O)NC(=O)[C@H]1CCCC[C@@H]1NC(=O)[C@H]1CCCC[C@@H]1NC(=O)C[C@@H](NC(=O)[C@H]1CCCC[C@@H]1N)C(C)C , assay S100A16 (Homo sapiens, UniProt Q96FQ6), pKd value: < 3.00

pKd for S100A16 (Homo sapiens, UniProt Q96FQ6) with input NC(=O)[C@H](CCCCNC(=O)c1ccc2c(c1)C1(OC2=O)c2ccc(O)cc2Oc2cc(O)ccc21)NC(=O)CNC(=O)[C@H]1CCCC[C@@H]1NC(=O)C[C@H](Cc1c[nH]c2ccccc12)NC(=O)[C@H]1CCCC[C@@H]1NC(=O)[C@H]1CCCC[C@@H]1NC(=O)C[C@H](Cc1c[nH]c2ccccc12)NC(=O)[C@H]1CCCC[C@@H]1N equals < 3.00

Summary: CSCC[C@@H](CC(=O)N[C@H]1CCCC[C@@H]1C(=O)NCC(=O)N[C@@H](CCCCNC(=O)c1ccc2c(c1)C1(OC2=O)c2ccc(O)cc2Oc2cc(O)ccc21)C(N)=O)NC(=O)[C@H]1CCCC[C@@H]1NC(=O)[C@H]1CCCC[C@@H]1NC(=O)C[C@@H](NC(=O)[C@H]1CCCC[C@@H]1N)[C@@H](C)O , S100A16 (Homo sapiens, UniProt Q96FQ6), pKd = < 3.00

====

Can you tell me pKd for the items I'm about to list?
- measured-on: S100G (Homo sapiens, UniProt P29377)
- Sequence (P29377 2-79): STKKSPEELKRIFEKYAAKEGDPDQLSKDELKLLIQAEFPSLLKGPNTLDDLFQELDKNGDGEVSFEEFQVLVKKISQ
- protocol-details: direct fluorescence polarization (FP), S100G
- Type: binding
- condition: 50 nM labeled foldamer, 20 mM HEPES pH 7.5, 150 mM NaCl, 1 mM CaCl2, 0.5 mM TCEP, 0.01% Tween20, quadratic fit, mean ± SEM, three technical repeats, threshold 1 mM
pKd: −log10 of the molar value.

// field: pKd; key: CSCC[C@@H](CC(=O)N[C@H]1CCCC[C@@H]1C(=O)NCC(=O)N[C@@H](CCCCNC(=O)c1ccc2c(c1)C1(OC2=O)c2ccc(O)cc2Oc2cc(O)ccc21)C(N)=O)NC(=O)[C@H]1CCCC[C@@H]1NC(=O)[C@H]1CCCC[C@@H]1NC(=O)C[C@@H](NC(=O)[C@H]1CCCC[C@@H]1N)[C@@H](C)O ; value = < 3.00

For CC[C@H](C)[C@@H](CC(=O)N[C@H]1CCCC[C@@H]1C(=O)N[C@H]1CCCC[C@@H]1C(=O)N[C@H](CC(=O)N[C@H]1CCCC[C@@H]1C(=O)NCC(=O)N[C@@H](CCCCNC(=O)c1ccc2c(c1)C1(OC2=O)c2ccc(O)cc2Oc2cc(O)ccc21)C(N)=O)Cc1ccccc1)NC(=O)[C@H]1CCCC[C@@H]1N the compound record lists pKd as < 3.00

# pKd of NC(=O)[C@H](CCCCNC(=O)c1ccc2c(c1)C1(OC2=O)c2ccc(O)cc2Oc2cc(O)ccc21)NC(=O)CNC(=O)[C@H]1CCCC[C@@H]1NC(=O)C[C@H](Cc1c[nH]c2ccccc12)NC(=O)[C@H]1CCCC[C@@H]1NC(=O)[C@H]1CCCC[C@@H]1NC(=O)C[C@H](Cc1c[nH]c2ccccc12)NC(=O)[C@H]1CCCC[C@@H]1N = < 3.00

For reference, reported pKd for NC(=O)[C@H](CCCCNC(=O)c1ccc2c(c1)C1(OC2=O)c2ccc(O)cc2Oc2cc(O)ccc21)NC(=O)CNC(=O)[C@H]1CCCC[C@@H]1NC(=O)C[C@H](Cc1ccccc1)NC(=O)[C@H]1CCCC[C@@H]1NC(=O)[C@H]1CCCC[C@@H]1NC(=O)C[C@H](Cc1ccc(O)cc1)NC(=O)[C@H]1CCCC[C@@H]1N stands at < 3.00

# pKd of C[C@@H](O)[C@@H](CC(=O)N[C@H]1CCCC[C@@H]1C(=O)N[C@H]1CCCC[C@@H]1C(=O)N[C@H](CC(=O)N[C@H]1CCCC[C@@H]1C(=O)NCC(=O)N[C@@H](CCCCNC(=O)c1ccc2c(c1)C1(OC2=O)c2ccc(O)cc2Oc2cc(O)ccc21)C(N)=O)Cc1c[nH]c2ccccc12)NC(=O)[C@H]1CCCC[C@@H]1N = < 3.00

The value of pKd measured for the compound CC[C@H](C)[C@@H](CC(=O)N[C@H]1CCCC[C@@H]1C(=O)N[C@H]1CCCC[C@@H]1C(=O)N[C@H](CC(=O)N[C@H]1CCCC[C@@H]1C(=O)NCC(=O)N[C@@H](CCCCNC(=O)c1ccc2c(c1)C1(OC2=O)c2ccc(O)cc2Oc2cc(O)ccc21)C(N)=O)CC(C)C)NC(=O)[C@H]1CCCC[C@@H]1N turned out to be < 3.00
